biological target: T1, soluble human FcRn (shFcRn) (human, UniProt P55899 24-297; P61769 21-119); assay: IgG competition ELISA
T1 construct: Biotinylated for the ELISA, amine-coupled to a CM5 chip for SPR; also called biotinylated shFcRn
T1 sequence (P55899 24-297 limits assumed, chain 1 of 2): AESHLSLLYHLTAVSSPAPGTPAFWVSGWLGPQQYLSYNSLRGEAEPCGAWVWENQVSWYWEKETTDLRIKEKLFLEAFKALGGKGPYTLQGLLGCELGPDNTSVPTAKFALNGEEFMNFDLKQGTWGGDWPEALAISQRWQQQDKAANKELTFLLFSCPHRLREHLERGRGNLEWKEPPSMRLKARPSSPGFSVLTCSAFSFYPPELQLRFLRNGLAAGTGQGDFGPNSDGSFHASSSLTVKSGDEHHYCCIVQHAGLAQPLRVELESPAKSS
T1 sequence (P61769 21-119 limits assumed, chain 2 of 2): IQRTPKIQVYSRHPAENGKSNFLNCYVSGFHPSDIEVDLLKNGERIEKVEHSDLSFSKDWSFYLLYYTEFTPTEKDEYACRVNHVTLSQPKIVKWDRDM
Bridge positions count the residues as written; N and C are the ends. Square brackets hold non-standard residues; d marks the D form. Ends that are not written are not given here. Pen = CC(C)(S)[C@H](N)C(=O)O
Readout Name: IC50
Please format your answer as a value with the unit trailing.

Incoming: Reported IC50, binder QRF[Pen]TGHFG[dA]LYPCNGP-NH2 (disulfide 4-14; N-terminus assumed; SMILES CC(C)C[C@@H]1NC(=O)[C@@H](C)NC(=O)CNC(=O)[C@H](Cc2ccccc2)NC(=O)[C@H](Cc2c[nH]cn2)NC(=O)CNC(=O)[C@H]([C@@H](C)O)NC(=O)[C@@H](NC(=O)[C@H](Cc2ccccc2)NC(=O)[C@H](CCCNC(=N)N)NC(=O)[C@@H](N)CCC(N)=O)C(C)(C)SSC[C@@H](C(=O)N[C@@H](CC(N)=O)C(=O)NCC(=O)N2CCC[C@H]2C(N)=O)NC(=O)[C@@H]2CCCN2C(=O)[C@H](Cc2ccc(O)cc2)NC1=O) [Peptide No. 74] : ____
Outgoing: 2 µM
